These entries and their values trace back to patent US11566007B2.

Target: KRAS G12V (Homo sapiens (Human), UniProt P01116+P62937, G12V)
Sequence (P01116-2 other isoform, or with tags, fused parts or gaps G12V): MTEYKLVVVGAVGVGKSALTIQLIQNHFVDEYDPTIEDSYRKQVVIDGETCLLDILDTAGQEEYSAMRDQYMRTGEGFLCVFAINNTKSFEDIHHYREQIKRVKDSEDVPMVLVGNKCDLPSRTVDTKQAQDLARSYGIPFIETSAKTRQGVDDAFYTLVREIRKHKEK
Sequence (P62937 whole entry): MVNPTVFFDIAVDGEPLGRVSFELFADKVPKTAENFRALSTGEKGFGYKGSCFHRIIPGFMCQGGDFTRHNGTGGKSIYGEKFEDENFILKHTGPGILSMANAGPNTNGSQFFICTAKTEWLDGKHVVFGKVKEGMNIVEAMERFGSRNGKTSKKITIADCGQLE
Experiment: Ras-Raf (BRAF RBD) disruption / FRET / MOA assay, KRAS G12V
Assay type: biochemical
Conditions: read-out: IC50* KRAS G12V FRET data
Measure: IC50

Illustrative cases are given below, each with its answer.
C=CC(=O)N1CC[C@]2(C1)OCN([C@H](C(=O)N[C@H]1Cc3cc(cc(C(F)F)c3)-c3ccc4c(c3)c(c(-c3cccnc3[C@H](C)OC)n4CC)CC(C)(C)COC(=O)[C@@H]3CCCN(N3)C1=O)C(C)C)C2=O (atropisomer, axis not shown)    1 to 10 µM
CCn1c(-c2cccnc2[C@H](C)OC)c2c3cc(ccc31)-c1cc(O)cc(c1)C[C@H](NC(=O)[C@H](C(C)C)N(C)C(=O)[C@H]1CCN(C(=O)C#CC(C)(C)N(C)C)C1)C(=O)N1CCC[C@H](N1)C(=O)OCC(C)(C)C2 (atropisomer, axis not shown)    0.01 to 0.1 µM
CCn1c(-c2cccnc2[C@H](C)OC)c2c3cc(ccc31)-c1cccc(c1)C[C@H](NC(=O)CCOC1CN(C(=O)C#CC(C)(C)N(C)C)C1)C(=O)N1CCC[C@H](N1)C(=O)OCC(C)(C)C2 (atropisomer, axis not shown)    > 10 µM
C=CC(=O)N1CC[C@H](C(=O)N(C)[C@H](C(=O)NC2C[C@@H]3CN(CCO3)c3ccc4c(c3)c(c(-c3cccnc3[C@H](C)OC)n4CC)CC(C)(C)COC(=O)[C@@H]3CC(Br)CN(N3)C2=O)C(C)C)C1 (some centres unmarked)    > 10 µM
CCn1c(-c2cccnc2[C@H](C)OC)c2c3cc(ccc31)-c1csc(n1)C[C@H](NC(=O)[C@H](C(C)C)N(C)C(=O)N1CCC3(CC1)CN(C(=O)/C=C/CF)C3)C(=O)N1CCC[C@H](N1)C(=O)OCC(C)(C)C2 (atropisomer, axis not shown)    0.1 to 1 µM

What does the record list as IC50 for C=CC(=O)N1C[C@H](C)N(C(=O)N(C)[C@H](C(=O)N[C@H]2Cc3nc(cs3)-c3ccc4c(c3)c(c(-c3cccnc3[C@H](C)OC)n4CC)CC(C)(C)COC(=O)[C@@H]3CCCN(N3)C2=O)C(C)C)C[C@H]1C (atropisomer, axis not shown) ?
1 to 10 µM

Same question for CCn1c(-c2cccnc2[C@H](C)OC)c2c3cc(ccc31)-c1csc(n1)C[C@H](NC(=O)CCO[C@H]1CCN(C(=O)C#CC(C)(C)N3CCC3)C1)C(=O)N1CCC[C@H](N1)C(=O)OCC(C)(C)C2 (atropisomer, axis not shown) please.
1 to 10 µM

Same question for C=C(OC)C(=O)N1CC(N(C)C(=O)N(C)[C@H](C(=O)N[C@H]2Cc3nc(cs3)-c3ccc4c(c3)c(c(-c3cccnc3[C@H](C)OC)n4CC)CC(C)(C)COC(=O)[C@@H]3CCCN(N3)C2=O)C(C)C)C1 (atropisomer, axis not shown) please.
1 to 10 µM
